Provenance of the data: patent US20120021972A1

- target or test system: human GLP-1 receptor (human, UniProt P43220 24-463)
- Sequence (P43220 24-463): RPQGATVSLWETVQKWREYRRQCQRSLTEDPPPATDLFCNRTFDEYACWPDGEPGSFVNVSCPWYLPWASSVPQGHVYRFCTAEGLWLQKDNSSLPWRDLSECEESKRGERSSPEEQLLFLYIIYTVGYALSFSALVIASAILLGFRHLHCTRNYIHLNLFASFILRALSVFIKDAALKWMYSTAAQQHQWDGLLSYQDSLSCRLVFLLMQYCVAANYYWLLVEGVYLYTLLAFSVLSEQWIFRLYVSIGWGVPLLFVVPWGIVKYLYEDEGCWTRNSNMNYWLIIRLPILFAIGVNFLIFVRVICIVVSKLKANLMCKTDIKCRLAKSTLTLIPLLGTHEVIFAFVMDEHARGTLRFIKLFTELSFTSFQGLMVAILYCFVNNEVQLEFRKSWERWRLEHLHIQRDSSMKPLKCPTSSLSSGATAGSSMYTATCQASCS
- test details: cell-based or functional assay
Starred links: 1 amine or outer side, 2 acyl side, 3 side chain; linkers in the order of their positions; H or OH if unused. Non-standard residues stand in square brackets, D forms with d. No end group written: not given here. AMCB = 2-amino-5-(4-chloro-2-methylphenyl)pentanoic acid, Cc1cc(Cl)ccc1CCC[C@H](N[*:1])C(=O)[*:2]; 2F,4CF3‑APPA = 2-amino-5-(2-fluoro-4-(trifluoromethyl)phenyl)pentanoic acid; 2Cl,4OMe‑APPA = 2-amino-5-(2-chloro-4-methoxyphenyl)pentanoic acid; Bip(2'-Et-4'-OMe) = CCc1cc(OC)ccc1-c1ccc(C[C@H](N)C(=O)O)cc1; 2F‑APPA = 2-amino-5-(2-fluorophenyl)pentanoic acid; αMePhe(2-F) = C[C@](N)(Cc1ccccc1F)C(=O)O; hhPhe = N[C@@H](CCCc1ccccc1)C(=O)O; aThr = C[C@H](O)[C@H](N)C(=O)O; CNB = not defined here; Aib = CC(C)(N)C(=O)O
measured parameter: cAMP release, % activity, 1 nM (%)

Would you please look over these solved cases?
H[Aib][CNB]GTFTSD[Bip(2'-Et-4'-OMe)][2Cl,4OMe‑APPA] (reading uncertain) [Seq. ID. No. 84: H-Aib-(CNB)-GTFTSD-Bip(OMe)-(2Cl,4OMe-APPA)] : 38
H[Aib][CNB]G[aThr][αMePhe(2-F)][aThr]SD[Bip(2'-Et-4'-OMe)][hhPhe] (reading uncertain; also: reduced (CH2) bond between 10 and 11) [Seq. ID. No. 190: H-Aib-(CNB)-G-T(allo)-(α-Me-2F-Phe)-T(allo)-SD-Bip(OMe)-(CH2)-(APPA)] : 41

(a) H[Aib][CNB]GTFTSD[Bip(2'-Et-4'-OMe)][2F‑APPA] (reading uncertain) [Seq. ID. No. 77: H-Aib-(CNB)-GTFTSD-Bip(OMe)-(2F-APPA)]
(b) HAQGTFTSD[Bip(2'-Et-4'-OMe)][AMCB] [Seq. ID. No. 16: HAQGTFTSD-Bip(OMe)-(AMCB)]
(c) H[Aib][CNB]GTFTSD[Bip(2'-Et-4'-OMe)][2F,4CF3‑APPA] (reading uncertain) [Seq. ID. No. 81: H-Aib-(CNB)-GTFTSD-Bip(OMe)-(2F, 4CF3-APPA)]
input: Put the items in sequence by cAMP release, % activity, 1 nM, from largest down. Please respond by ranking the labels in the order requested.
output: b, c, a
(b: 99%, c: 69%, a: 40%)
